The reported numbers originate from ChEMBL document CHEMBL4689842.

Please go through the items and note down their Population Healthy Nuclei (%).
System: HEK-293T
method-description: Multiplex assay against HEK293T
Type: toxicity, cell-based
run-conditions: human, 24 h, 1 µM, compound concentration 1 uM, replicate 2
Response body: numeric value in %, unit text excluded.

The measured Population Healthy Nuclei (%) that `COc1cc2c(NC3CCN(C(C)C)CC3)nc(N3CCC(F)(F)CC3)nc2cc1OCCCN1CCCC1` showed for HEK-293T is 60

Let me check: N#Cc1cnc(Nc2cc(NC[C@H]3CNCCO3)c(C(F)(F)F)cn2)cn1 [SRA-737] , system HEK-293T, measured Population Healthy Nuclei (%) is 63

HEK-293T assay, molecule `COc1cc(N2CCC(N(C)C)CC2)ccc1Nc1ncc(Cl)c(Nc2ccccc2P(C)(C)=O)n1` , recorded Population Healthy Nuclei (%) = 77

Tested on HEK-293T: `CNc1oc(-c2cccc3ccccc23)nc1C#N` . Observed Population Healthy Nuclei (%): 79

For the molecule CCCn1c(=O)c2[nH]c(C34CC5CC(CC3C5)C4)nc2n(CCC)c1=O [ROLOFYLLINE] , the measured Population Healthy Nuclei (%) on HEK-293T was 59

Reading of Population Healthy Nuclei (%) for CC(C)Oc1ccc(C(=O)N[C@H](CNC(=O)CN(C)C)Cc2ccc(-c3cn4cccc([C@H](C)O)c4n3)cc2)cc1Cl [GSK-923295A] with HEK-293T: 77

Item: `Nc1ccc(C(=O)Nc2cccc(-c3nc(N4CCOCC4)c4oc5ncccc5c4n3)c2)cn1` | System: HEK-293T | Population Healthy Nuclei (%): 37

Bench note, HEK-293T: CCOc1cc2ncc(C#N)c(Nc3ccc(OCc4cccc(F)c4)c(Cl)c3)c2cc1NC(=O)/C=C/CN(C)C [HKI-357] , Population Healthy Nuclei (%) reads 71

For CNC(=O)c1cc(Oc2ccc(NC(=O)Nc3cc(C(C)(C)C)nn3-c3ccc4ncccc4c3)c(F)c2)ccn1 [REBASTINIB] on HEK-293T, measured Population Healthy Nuclei (%) was 69

So the reported Population Healthy Nuclei (%) for `CC(C)N1CCC(C)(C)c2cc(C#Cc3ccc(C(=O)O)cc3)ccc21` , on HEK-293T, turned out to be 59

Measured Population Healthy Nuclei (%) for this entry `CCOc1cc(N2CCC(O)CC2)ccc1Nc1ncc2c(n1)N(C1CCCC1)CCC(=O)N2C` on HEK-293T: 72

Tested on HEK-293T, the item `Cc1cc2c(cc1N1C(=O)c3cccc4c(CCCO)ccc(c34)C1=O)n(C)c(=O)n2C` showed Population Healthy Nuclei (%) equal to 75
